Cited source for all entries: BindingDB's records for PubMed 10617681

# Ki per record follows
# TARGET SYSTEM: 5-hydroxytryptamine receptor 2C (Homo sapiens)
# Sequence (P28335 whole entry): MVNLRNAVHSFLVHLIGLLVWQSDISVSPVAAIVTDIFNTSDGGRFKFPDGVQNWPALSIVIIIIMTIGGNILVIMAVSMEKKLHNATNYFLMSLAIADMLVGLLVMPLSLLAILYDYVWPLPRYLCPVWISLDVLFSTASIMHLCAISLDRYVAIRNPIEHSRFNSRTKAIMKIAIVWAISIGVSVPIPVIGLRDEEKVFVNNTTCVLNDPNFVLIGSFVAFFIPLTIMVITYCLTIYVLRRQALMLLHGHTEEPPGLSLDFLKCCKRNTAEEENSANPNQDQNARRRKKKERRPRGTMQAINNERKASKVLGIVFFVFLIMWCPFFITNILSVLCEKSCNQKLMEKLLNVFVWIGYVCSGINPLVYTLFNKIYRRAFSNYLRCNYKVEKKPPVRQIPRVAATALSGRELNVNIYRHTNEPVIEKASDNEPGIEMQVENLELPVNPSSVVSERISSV
Reply with just the number (in nM).

compound=C[C@@H](N)Cc1cccc(C(F)(F)F)c1 result_type=Ki value_reported=99

Request: Would you kindly share the measured Ki for C[C@H](N)Cc1cccc(C(F)(F)F)c1 [Norfenfluramine (+)] ?
Response: 56

----------
// Ki collected for 5-hydroxytryptamine receptor 2B (Homo sapiens, UniProt P41595)
Reply with just the number (in nM).

compound="C[C@H](N)Cc1cccc(C(F)(F)F)c1 [Norfenfluramine (+)]" value_reported=27

Request: Tell me reported Ki for C[C@@H](N)Cc1cccc(C(F)(F)F)c1 , tested with 5-hydroxytryptamine receptor 2B (Homo sapiens, UniProt P41595).
Sequence (P41595 whole entry): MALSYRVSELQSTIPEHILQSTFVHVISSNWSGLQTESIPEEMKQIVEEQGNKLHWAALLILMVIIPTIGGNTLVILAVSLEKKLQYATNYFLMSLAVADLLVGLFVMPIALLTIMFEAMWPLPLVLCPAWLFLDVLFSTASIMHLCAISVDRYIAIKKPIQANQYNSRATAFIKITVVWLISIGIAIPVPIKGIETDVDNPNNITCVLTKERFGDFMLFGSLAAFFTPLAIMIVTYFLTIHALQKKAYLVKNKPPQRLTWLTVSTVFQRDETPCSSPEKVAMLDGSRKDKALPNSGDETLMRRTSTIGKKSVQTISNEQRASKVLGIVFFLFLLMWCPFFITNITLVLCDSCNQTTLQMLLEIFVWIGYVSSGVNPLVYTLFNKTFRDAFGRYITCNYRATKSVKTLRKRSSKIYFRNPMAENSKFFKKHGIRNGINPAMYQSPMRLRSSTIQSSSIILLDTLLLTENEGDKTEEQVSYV
Response: 65
